- Test method notes: duplex formation free energy ΔG50 (Van't Hoff fit of HRM Tm); higher = less stable duplex
- Protocol conditions: temperature for dG: 50 °C; NaCl: 500 mM (unadjusted); backbone: PS-PS (both strands fully phosphorothioate)
Documented duplex formation free energy ΔG50 across a set of sequences

- Sequence entry: "CTACCAGCGGCGCCGTT"
  duplex formation free energy ΔG50 (kcal/mol): -12.7
- Sequence entry: "CCGCTCAGAGTAGAGA"
  duplex formation free energy ΔG50 (kcal/mol): -9.67
- Sequence entry: "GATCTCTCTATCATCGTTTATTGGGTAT"
  duplex formation free energy ΔG50 (kcal/mol): -11.5
- Sequence entry: "GAGCAGAAGGGGTTGT"
  duplex formation free energy ΔG50 (kcal/mol): -9.82
- Sequence entry: "GTGAGCAGAAGGGGTT"
  duplex formation free energy ΔG50 (kcal/mol): -10.1
- Sequence entry: "TAGACGCGGCCTCTTTCC"
  duplex formation free energy ΔG50 (kcal/mol): -13.4
- Sequence entry: "GAGGCAGCCGCGACCTG"
  duplex formation free energy ΔG50 (kcal/mol): -12.9
- Sequence entry: "AGGAGTGAATGAAATGG"
  duplex formation free energy ΔG50 (kcal/mol): -8.33
- Sequence entry: "CAAGCCTCGATTTTGT"
  duplex formation free energy ΔG50 (kcal/mol): -9.15

---

Entries and their measured duplex melting temperature follow.
- Test method notes: duplex melting temperature (HRM, EvaGreen); higher = more stable duplex
- Protocol conditions: duplex concentration 20 µM; backbone: PS-PS (both strands fully phosphorothioate)

- Sequence entry: "CGATTTTGTCAAGCCT"
  duplex melting temperature: "54.5 °C"
- Sequence entry: "CCGCTCAGAGTAGAGA"
  duplex melting temperature: "58.7 °C"
- Sequence entry: "ACTCGCTCTACCTTAAT"
  duplex melting temperature: "56.8 °C"

---

- Test method notes: duplex melting temperature (HRM, EvaGreen); higher = more stable duplex
- Protocol conditions: duplex concentration 7.5 µM; backbone: PS-PO (listed strand fully phosphorothioate, complement phosphodiester)
duplex melting temperature overview

- Sequence entry: "AGCTGAGCCTGCCGCC"
  Readout units: "°C"
  duplex melting temperature: 72.9
- Sequence entry: "AATGAGGAGTGAAATGG"
  Readout units: "°C"
  duplex melting temperature: 60.4
- Sequence entry: "CTCAGAGTAGAGCCGA"
  Readout units: "°C"
  duplex melting temperature: 64.3
- Sequence entry: "CTGTAAGGCGATATGTT"
  Readout units: "°C"
  duplex melting temperature: 60.5
- Sequence entry: "GCAGGAGCCGCGACCTG"
  Readout units: "°C"
  duplex melting temperature: 74.8
- Sequence entry: "GCTGTGAAACAATGTAG"
  Readout units: "°C"
  duplex melting temperature: 58.4
- Sequence entry: "TGCCATGTTGAAAACC"
  Readout units: "°C"
  duplex melting temperature: 59.5
- Sequence entry: "ACGGGTCGTTCCGTG"
  Readout units: "°C"
  duplex melting temperature: 64.6
- Sequence entry: "GTGAGCAGAAGGGGTT"
  Readout units: "°C"
  duplex melting temperature: 66
- Sequence entry: "GATGCCGCAGCGACCTG"
  Readout units: "°C"
  duplex melting temperature: 73.3
- Sequence entry: "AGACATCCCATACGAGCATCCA"
  Readout units: "°C"
  duplex melting temperature: 71.2
- Sequence entry: "AGCACGGTGGTACAACA"
  Readout units: "°C"
  duplex melting temperature: 66.3
- Sequence entry: "CGGGATTTCTGGCATCATTGTCCT"
  Readout units: "°C"
  duplex melting temperature: 70.8
- Sequence entry: "CTCGGAGGCCCCATTTA"
  Readout units: "°C"
  duplex melting temperature: 67.6
- Sequence entry: "GAGGCAGCCGCGACCTG"
  Readout units: "°C"
  duplex melting temperature: 75.9
- Sequence entry: "TCTACACCGCGA"
  Readout units: "°C"
  duplex melting temperature: 58.2
- Sequence entry: "GTGAAACAATGCTGTAG"
  Readout units: "°C"
  duplex melting temperature: 59.6
- Sequence entry: "TAGACGCGGCCTCTTTCC"
  Readout units: "°C"
  duplex melting temperature: 71.3
- Sequence entry: "TTAACCTGCAATGGATC"
  Readout units: "°C"
  duplex melting temperature: 60.6
- Sequence entry: "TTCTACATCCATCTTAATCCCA"
  Readout units: "°C"
  duplex melting temperature: 63
